// reported pKd per item
- System Name: T1, human TL1A (human, UniProt O95150 72-251, limits assumed)
- T1 construct: also called tumor necrosis factor-like cytokine 1A; TNFSF15
- T1 sequence (looked up): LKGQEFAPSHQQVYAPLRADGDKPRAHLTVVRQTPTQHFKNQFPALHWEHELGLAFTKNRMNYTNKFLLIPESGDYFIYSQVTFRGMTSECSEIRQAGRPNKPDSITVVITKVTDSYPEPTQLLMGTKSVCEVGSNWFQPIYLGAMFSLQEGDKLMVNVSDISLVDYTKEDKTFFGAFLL
- Assay Info: ELISA titration on plate-coated human TL1A, unpurified culture supernatant
pKd: −log10 of the molar value.

- Binder: "A199 (antibody, IgG1, V domains shown) VH: EVQLVQSGAEVKKPGASVKVSCKASGFDIQDTYMHWVKQRPGQGLEWIGRIDPASGHTKYDPKFQVRATITTDTSTSTAYLELSSLRSEDTAVYYCARSGGLPDVWGQGTTVTVSS VL: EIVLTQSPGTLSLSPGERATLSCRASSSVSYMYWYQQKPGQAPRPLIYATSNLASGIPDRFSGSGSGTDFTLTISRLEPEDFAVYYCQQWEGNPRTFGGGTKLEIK"
  pKd: 10.30
- Binder: "A159 (antibody, IgG1, V domains shown) VH: QVQLVQSGAEVKKPGASVKVSCKASGFDIQDTYMHWVKQRPGQGLEWMGRIDPASGHTKYDPKFQVRVTITRDTSTSTAYMELSSLRSEDTAVYYCARSGGLPDVWGQGTTVTVSS VL: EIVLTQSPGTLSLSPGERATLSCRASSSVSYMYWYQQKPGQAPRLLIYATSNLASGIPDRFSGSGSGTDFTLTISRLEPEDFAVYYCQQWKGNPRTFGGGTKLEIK"
  pKd: 10.16
